biological target: human recombinant AChE (hAChE) (Homo sapiens, UniProt P22303); assay: biochemical; format: biochemical; conditions: calculated as IC50 hBuChE/hAChE ratio
Sequence (P22303 32-614): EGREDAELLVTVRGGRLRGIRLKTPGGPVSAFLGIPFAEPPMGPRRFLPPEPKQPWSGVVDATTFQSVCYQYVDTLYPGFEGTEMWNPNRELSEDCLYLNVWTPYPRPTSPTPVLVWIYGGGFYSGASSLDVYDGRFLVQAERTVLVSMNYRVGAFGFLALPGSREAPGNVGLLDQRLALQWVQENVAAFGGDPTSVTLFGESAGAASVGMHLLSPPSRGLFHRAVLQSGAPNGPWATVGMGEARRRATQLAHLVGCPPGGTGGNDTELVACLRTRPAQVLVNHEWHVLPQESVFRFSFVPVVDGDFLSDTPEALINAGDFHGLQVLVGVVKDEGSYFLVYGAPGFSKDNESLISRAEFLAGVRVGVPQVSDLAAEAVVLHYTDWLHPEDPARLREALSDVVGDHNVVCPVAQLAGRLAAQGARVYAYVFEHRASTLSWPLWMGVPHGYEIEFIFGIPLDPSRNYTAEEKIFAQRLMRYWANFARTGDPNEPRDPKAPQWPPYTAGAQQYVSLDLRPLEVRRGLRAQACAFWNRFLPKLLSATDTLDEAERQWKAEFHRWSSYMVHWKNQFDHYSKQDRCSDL
Parameter: SI: selectivity index for AChE

Structure as smiles | Parameter | Observed measurement
CCN(CC)CCCOc1cccc(C(=O)C=Cc2ccc(OCCCCCCCN(C)Cc3ccccc3)cc2)c1 | SI: selectivity index for AChE | 0.31
CCN(CC)CCOc1ccc(C(=O)C=Cc2ccc(OCCCCCCCN(C)Cc3ccccc3)cc2)cc1 | SI: selectivity index for AChE | 28.4
CCN(CC)CCCCOc1ccc(C(=O)C=Cc2ccc(OCCCCCCCN(C)Cc3ccccc3)cc2)cc1 | SI: selectivity index for AChE | 3.5
CCN(CC)Cc1ccc(C(=O)C=Cc2ccc(OCCCCCCCN(C)Cc3ccccc3)cc2)cc1 | SI: selectivity index for AChE | 3.14
COc1ccc(C(=O)C=Cc2ccc(OCCCCCCCN(C)Cc3ccccc3)cc2)cc1 | SI: selectivity index for AChE | 0.03
CCN(CC)CCCOc1ccc(C(=O)C=Cc2ccc(OCCCCCCCN(C)Cc3ccccc3)cc2)cc1 | SI: selectivity index for AChE | 2.6
CN(CCCCCCCOc1ccc(C=CC(=O)c2ccc(OCCN3CCc4ccccc4C3)cc2)cc1)Cc1ccccc1 | SI: selectivity index for AChE | 0.23
CCN(CC)CCOc1ccc(C(=O)CCc2ccc(OCCCCCCCN(C)Cc3ccccc3)cc2)cc1 | SI: selectivity index for AChE | 3.25
